Target: Sulfonylurea receptors; K-ATP channels (Sus scrofa)
Assay: In vitro functional potassium channel opening activity in tissue strips obtained from Landrace pig bladders(LPD)
pEC50: −log10 of the molar value.
pEC50 values by entry

[
  {
    "COMPOUND": "CC(Cl)(Cl)C(NC(=O)c1cc(F)cc(F)c1)N/C(=N/c1cccnc1)NC#N (stereo unspecified)",
    "pEC50": 5.30
  },
  {
    "COMPOUND": "CC(Cl)(Cl)C(NC(=O)c1ccc(Cl)cc1)NC(=NC#N)Nc1cccnc1 (stereo unspecified)",
    "pEC50": 5.60
  },
  {
    "COMPOUND": "CCC(CC)(CCC#N)C(NC(=O)c1ccc(Cl)cc1)NC(=NC#N)Nc1cccnc1 (stereo unspecified)",
    "pEC50": 5.30
  },
  {
    "COMPOUND": "CC(C)(C)C(NC(=O)c1ccc(Cl)cc1)N/C(=N/c1cccnc1)N[N+](=O)[O-] (stereo unspecified)",
    "pEC50": 5.10
  },
  {
    "COMPOUND": "CC(Cl)(Cl)[C@@H](NC(=O)c1ccc(Cl)cc1)N/C(=N/C#N)Nc1cccnc1",
    "pEC50": 5.30
  },
  {
    "COMPOUND": "CC(Cl)(Cl)[C@H](NC(=O)c1ccc(Cl)cc1)N/C(=N/c1cccnc1)NC#N",
    "pEC50": 4.70
  },
  {
    "COMPOUND": "CC(C)(C)C(NC(=O)c1ccc(Cl)cc1)N/C(=N/c1cccnc1)NC#N (stereo unspecified)",
    "pEC50": 4.70
  },
  {
    "COMPOUND": "O=C(NC(NC(=S)Nc1cccnc1)C(Cl)(Cl)Cl)c1ccc(Cl)cc1 (stereo unspecified)",
    "pEC50": 5.70
  },
  {
    "COMPOUND": "N#CN/C(=N\\C(NC(=O)c1ccc(Cl)cc1)C(Cl)(Cl)Cl)Nc1cccnc1 (stereo unspecified)",
    "pEC50": 5.70
  },
  {
    "COMPOUND": "CC(Cl)(Cl)C(NC(=O)c1cccc(Cl)c1)N/C(=N/c1cccnc1)NC#N (stereo unspecified)",
    "pEC50": 5.80
  },
  {
    "COMPOUND": "CC(C)(C)C(NC(=O)c1ccc(Cl)cc1)N/C(S)=N/c1cccnc1 (stereo unspecified)",
    "pEC50": 5.10
  }
]
